# MEASURED ON: human GRP receptor (human, UniProt P30550 1-384)
# Sequence (P30550 whole entry): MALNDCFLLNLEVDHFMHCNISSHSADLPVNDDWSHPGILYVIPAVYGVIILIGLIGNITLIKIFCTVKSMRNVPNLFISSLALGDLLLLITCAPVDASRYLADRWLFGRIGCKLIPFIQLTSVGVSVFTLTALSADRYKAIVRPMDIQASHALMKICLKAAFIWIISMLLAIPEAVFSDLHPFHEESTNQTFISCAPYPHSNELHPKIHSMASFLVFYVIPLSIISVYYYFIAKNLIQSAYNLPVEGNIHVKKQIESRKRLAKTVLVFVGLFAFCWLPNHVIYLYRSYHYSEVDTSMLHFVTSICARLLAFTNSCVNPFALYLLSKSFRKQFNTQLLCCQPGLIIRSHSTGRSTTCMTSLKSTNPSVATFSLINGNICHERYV
# TEST NAME: cell-based or functional assay
Starred links: 1 amine or outer side, 2 acyl side, 3 side chain; linkers in the order of their positions; H or OH if unused. Non-standard residues stand in square brackets, D forms with d. No end group written: not given here. *: point of attachment. C20 diacid = O=C(O)CCCCCCCCCCCCCCCCCCC(=O)*; d(γGlu) = O=C(O)[C@@H](CCC(=O)[*:2])N[*:1]; C18 diacid = O=C(O)CCCCCCCCCCCCCCCCC(=O)*; γGlu = O=C(O)[C@H](CCC(=O)[*:2])N[*:1]; Palmitoyl = CCCCCCCCCCCCCCCC(=O)*; 3Pal = N[C@@H](Cc1cccnc1)C(=O)O; Nle = CCCC[C@H](N)C(=O)O; AEEA = NCCOCCOCC(=O)O; Aib = CC(C)(N)C(=O)O; βAla = NCCC(=O)O
MEASUREMENT TYPE: hIP1 GRPR EC50

// worked examples, hIP1 GRPR EC50 included
- BINDER: "GNHWAVGHLM-NH2 [GRP-10 (human GRP18-27)]"
  hIP1 GRPR EC50: "15 nM"
- BINDER: "{C20 diacid}-[γGlu][AEEA][AEEA]GQHWAV[βAla]HL[Nle]-NH2 (SMILES CCCC[C@H](NC(=O)[C@H](CC(C)C)NC(=O)[C@H](Cc1c[nH]cn1)NC(=O)CCNC(=O)[C@@H](NC(=O)[C@H](C)NC(=O)[C@H](Cc1c[nH]c2ccccc12)NC(=O)[C@H](Cc1c[nH]cn1)NC(=O)[C@H](CCC(N)=O)NC(=O)CNC(=O)COCCOCCNC(=O)COCCOCCNC(=O)CC[C@H](NC(=O)CCCCCCCCCCCCCCCCCCC(=O)O)C(=O)O)C(C)C)C(N)=O) [Peptide 241]"
  hIP1 GRPR EC50: "2 nM"
- BINDER: "Palmitoyl-[d(γGlu)]GNHWAV[Aib]HL[Nle]-NH2 (SMILES CCCCCCCCCCCCCCCC(=O)N[C@H](CCC(=O)NCC(=O)N[C@@H](CC(N)=O)C(=O)N[C@@H](Cc1c[nH]cn1)C(=O)N[C@@H](Cc1c[nH]c2ccccc12)C(=O)N[C@@H](C)C(=O)N[C@H](C(=O)NC(C)(C)C(=O)N[C@@H](Cc1c[nH]cn1)C(=O)N[C@@H](CC(C)C)C(=O)N[C@@H](CCCC)C(N)=O)C(C)C)C(=O)O) [Peptide 21]"
  hIP1 GRPR EC50: "120 nM"

[Q] Which hIP1 GRPR EC50 is reported for this binder? Palmitoyl-[d(γGlu)][AEEA][AEEA]GNHWAV[Aib][3Pal]L[Nle]-NH2 (SMILES CCCCCCCCCCCCCCCC(=O)N[C@H](CCC(=O)NCCOCCOCC(=O)NCCOCCOCC(=O)NCC(=O)N[C@@H](CC(N)=O)C(=O)N[C@@H](Cc1c[nH]cn1)C(=O)N[C@@H](Cc1c[nH]c2ccccc12)C(=O)N[C@@H](C)C(=O)N[C@H](C(=O)NC(C)(C)C(=O)N[C@@H](Cc1cccnc1)C(=O)N[C@@H](CC(C)C)C(=O)N[C@@H](CCCC)C(N)=O)C(C)C)C(=O)O) [Peptide 2]
[A] 822 nM

[Q] Which hIP1 GRPR EC50 is reported for this binder? {C18 diacid}-[d(γGlu)][AEEA][AEEA]GNHHAV[dA]HL[Nle]-NH2 (SMILES CCCC[C@H](NC(=O)[C@H](CC(C)C)NC(=O)[C@H](Cc1c[nH]cn1)NC(=O)[C@@H](C)NC(=O)[C@@H](NC(=O)[C@H](C)NC(=O)[C@H](Cc1c[nH]cn1)NC(=O)[C@H](Cc1c[nH]cn1)NC(=O)[C@H](CC(N)=O)NC(=O)CNC(=O)COCCOCCNC(=O)COCCOCCNC(=O)CC[C@@H](NC(=O)CCCCCCCCCCCCCCCCC(=O)O)C(=O)O)C(C)C)C(N)=O) [Peptide 68]
[A] > 10000 nM
